Property: koff; scope: individual binders
system under test: T1, biotinylated human BCMA-Fc, Avitag recombinant protein (ACRO Biosystems, #BC7-H82F0) (human, UniProt Q02223 1-54, biotinylated)
T1 construct: extracellular domain; Bought protein; also called human BCMA protein; recombinant human BCMA-ECD-Fc; not shown: Fc of the bought fusion protein; Avitag
T1 sequence (looked up): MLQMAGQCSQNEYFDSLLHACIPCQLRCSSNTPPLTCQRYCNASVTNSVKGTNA
protocol summary: BLI (Octet Red96e), biotinylated BCMA-Fc on SA sensor, VH supernatant, 100 nM, single concentration
Please give a number only; it is taken to be in s⁻¹.

Worked examples, 3 binders total:
# binder, koff [s⁻¹]
records = [
    ("PR004567, PR001046 VH-derived single-domain variant 1046-R2-5E1 (VHH, Tested as VH single domain with Flag and His tags; not shown: Flag and His tags) VHH: EVQLVETGGGLIQPGGSLRLSCAASGFTVSDSYMTWVRQAPGKGLEWVSVIFSGGKTYVADSVKGRFTISRDNAKNTLYLQMNSLRAEDTALYYCARRNYDQTRGTDVFDIWGQGTMVTVSS", 0.000201),
    ("PR004565, PR001046 VH-derived single-domain variant 1046-R2-2G4 (VHH, Tested as VH single domain with Flag and His tags; not shown: Flag and His tags) VHH: EVQLVETGGGLIQPGGSLRLSCAASGFTVSDAYMTWVRQAPGKGLEWVSVIFSGGNTYVSDSVKGRFTISRDNAKNTLYLQMNSLRAEDTALYYCARRNYDQTIGTDVFDIWGQGTMVTVSS", 0.000236),
    ("PR004574, PR001046 VH-derived single-domain variant 1046-R2-9E5 (VHH, Tested as VH single domain with Flag and His tags; not shown: Flag and His tags) VHH: EVQLVETGGGLIQPGGSLRLSCAASGFTVSDAYMTWVRQAPGKGLEWVSVIFSGGRTYYSDSVKGRFTISRDNAKNTLYLQMNSLRAEDTALYYCARRNYDQTRGTDVFDIWGQGTMVTVSS", 0.000314),
]

Now examine the next entry.
[in] Which value of koff has been reported for PR004562, PR001046 VH-derived single-domain variant 1046-R2-10H5 (VHH, Tested as VH single domain with Flag and His tags; not shown: Flag and His tags) VHH: EVQLVETGGGLIQPGGSLRLSCAASGFTVSDSYMTWVRQAPGKGLEWVSVIFSGGKTYYSDSVKGRFTISRDNAKNTLYLQMNSLRAEDTALYYCARRNYDQTLGTDVFDIWGQGTMVTVSS in the records?
[out] 0.000217
